I'd be grateful if you could share measured Max effect for these entries.
TARGET OF ASSAY: T1, recombinant human IgE (human, UniProt P01854-1 1-428)
T1 construct: made in-house (ALK); preloaded on immobilised FcεRIα in the displacement ELISA
T1 sequence (P01854 other isoform, or with tags, fused parts or gaps): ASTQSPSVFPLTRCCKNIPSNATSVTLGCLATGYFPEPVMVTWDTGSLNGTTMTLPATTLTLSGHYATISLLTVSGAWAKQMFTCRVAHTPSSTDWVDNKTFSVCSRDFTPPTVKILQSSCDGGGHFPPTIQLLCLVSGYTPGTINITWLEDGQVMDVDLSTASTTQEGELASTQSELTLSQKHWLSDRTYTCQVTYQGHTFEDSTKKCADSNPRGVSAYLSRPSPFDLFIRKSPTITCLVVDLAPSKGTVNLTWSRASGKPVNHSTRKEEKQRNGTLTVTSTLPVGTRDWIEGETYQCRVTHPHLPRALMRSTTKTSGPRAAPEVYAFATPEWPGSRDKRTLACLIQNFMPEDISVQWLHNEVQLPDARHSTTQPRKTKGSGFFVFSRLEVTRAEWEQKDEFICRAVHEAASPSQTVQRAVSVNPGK
ASSAY NOTES: IgE-FcεRIα displacement ELISA
Method: The displacement effect was tested using IgE-FcεRIα displacement ELISA assay. […] The ability of the various sdAbs to displace IgE from the receptor (FcεRIα) was evaluated by use of the ELISA based IgE-FcεRIα displacement assay. The percent displacement effect was calculated as the relative reduction in signal compared to the control with no sdAb added. The EC₅₀ values and the maximal effects were determined (table 15).

Reference set, count: 2
>  <BINDER>
sdAb E2 (VHH) VHH: DVQLQESGGGLVQAGGSLRLSCAASGRTISRYAVGWFRRPPAKEREFIGINWSGGSTTYADSAEGRFIISRDNAKNTVYLQMNSLKPEDTAVYYCAVPSVLVQGGISNPSQYDYWGQGTQVTVS

>  <Max effect>
0%

$$$$
>  <BINDER>
B1A1(G4S)3 (bispecific antibody) QVQLQESGGGLVQTGGSLRLSCAVHGRTFSNTGMGWFRQAPGNERQFVAIISPSGTSTYYADSVKGRFTISRDPAKNTVYLQMNSLKMDDTAVYYCAASYGSNWSTLRHQRRNEYDAWGQGTQVAVSGGGGSGGGGSGGGGSEVQLLESGGGLVQPGGSLRLSCAASGFTFGNYDMAWVRQAPGKRPEWVSSIDTGGDITHYADSVKGRFTISRDNAKNTLYLQMNSLRPEDTAVYWCATDEEYALGPNEFDYYGQGTLVTVSS

>  <Max effect>
> 95%

$$$$

For the next question, use this binder.
Input: Looking for the measured Max effect of A1B1(G4S)4 (bispecific antibody) EVQLLESGGGLVQPGGSLRLSCAASGFTFGNYDMAWVRQAPGKRPEWVSSIDTGGDITHYADSVKGRFTISRDNAKNTLYLQMNSLRPEDTAVYWCATDEEYALGPNEFDYYGQGTLVTVSGGGGSGGGGSGGGGSGGGGSQVQLQESGGGLVQTGGSLRLSCAVHGRTFSNTGMGWFRQAPGNERQFVAIISPSGTSTYYADSVKGRFTISRDPAKNTVYLQMNSLKMDDTAVYYCAASYGSNWSTLRHQRRNEYDAWGQGTQVAVS , can you help?
Output: > 95%
